Reference source: the METLIN SMRT retention time set (Domingo-Almenara et al. 2019)

Reported RP-LC retention time values are given for each entry in this list.
- test method notes: gradient 5% acetonitrile 3 min, to 50% in 2 min, to 85% in 15 min, held 3 min, 100 µL/min
- condition context: column: Zorbax Extend-C18 2.1 x 50 mm; eluents: water / acetonitrile, 0.1% formic acid
Numbers only; they are read as s.

Completed entries (count: 4):
CC(C)NC(=O)N1CCCC1c1noc(CCC(=O)NC2CC2)n1 (stereo not given): 603
COc1ccc(-c2noc(-c3ccc(N4CCN(c5ncccn5)CC4)nn3)n2)cc1: 923
COc1cc(-c2ccc(F)cc2)nc2ccc(NS(=O)(=O)c3ccccc3)cc12: 754
COc1cccc(-c2cn3c(C(=O)Nc4ncccc4C)csc3n2)c1: 732

Now for a further compound.
Recorded RP-LC retention time for CCCC(=O)N1CCCn2nc(-c3cccnc3)cc2C1 , please?
577
